# Assay Overview: AUC (0 to 6 hrs) in rat at 3 mg/kg, po
# Assay type: ADME, organism-based
# Parameters: time < 6 hr, dose 3 mg/kg, route oral
# Condition Details: plasma
Measured Parameter: AUC(0-t) at 6 h (ng·h/mL)
Reply with just the number (in ng·h/mL).

If you can, please state the reported AUC(0-t) at 6 h value of CC(c1ccc2cc(CCn3ncc4c3nc(N)n3nc(-c5ccco5)nc43)ccc2n1)N1CCOCC1 (centres undefined) .
7490

Cool, now Nc1nc2c(cnn2CCc2ccc(-c3cccnc3)cc2)c2nc(-c3ccco3)nn12
351

Cool, now Nc1nc2c(cnn2CCc2ccc(-c3cnccn3)cc2)c2nc(-c3ccco3)nn12
114

Cool, now Nc1nc2c(cnn2CCc2ccc(-c3ccc(OC(F)(F)F)cc3)cc2)c2nc(-c3ccco3)nn12
67
